- SUBJECT OF TEST: porcine pancreatic lipase (Sus scrofa)
- Construct: purchased Sigma-Aldrich (Shanghai, China)
- Sequence (P00591 whole entry): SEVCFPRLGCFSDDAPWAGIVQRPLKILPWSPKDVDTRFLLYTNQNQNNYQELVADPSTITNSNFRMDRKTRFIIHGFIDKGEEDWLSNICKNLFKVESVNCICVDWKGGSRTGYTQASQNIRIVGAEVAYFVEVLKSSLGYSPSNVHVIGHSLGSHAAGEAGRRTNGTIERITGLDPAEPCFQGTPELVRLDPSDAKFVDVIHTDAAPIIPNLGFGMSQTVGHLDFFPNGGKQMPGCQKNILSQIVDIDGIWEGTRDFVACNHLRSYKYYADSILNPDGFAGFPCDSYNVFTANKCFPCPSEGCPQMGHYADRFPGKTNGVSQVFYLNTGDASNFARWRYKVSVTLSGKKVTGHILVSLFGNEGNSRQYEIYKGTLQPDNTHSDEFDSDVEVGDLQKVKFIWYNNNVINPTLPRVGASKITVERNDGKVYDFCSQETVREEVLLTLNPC
- METHOD: pancreatic lipase inhibitory assay (p-nitrophenyl laurate substrate)
- Format: biochemical
- REPORTED CONDITIONS: mean ± SD, three replicates; read-out: Enzyme Inhibition IC50 Pancreatic Lipase (converted)
ASSAY READOUT: IC50 (µM)
Response body: numeric value in µM, unit text excluded.

In plain terms, O=C(/C=C/c1ccc(O)c(O)c1)OC[C@H]1O[C@@H](Oc2ccc(O)cc2)[C@H](O)[C@@H](O)[C@@H]1O has a documented IC50 of 225

In plain terms, O=C(O)/C=C/c1ccc(O)c(O)c1 has a documented IC50 of 1310

In plain terms, O=c1c(OC2O[C@H](CO)[C@@H](O)[C@@H]2O)c(-c2ccc(O)c(O)c2)oc2cc(O)cc(O)c12 (stereo in doubt) [Compound 5, Quercetin-3-O-arabinofuranoside] has a documented IC50 of 759

In plain terms, O=C(O)c1ccc(O)cc1 [Compound 10, p-Hydroxybenzoic acid] has a documented IC50 of 2220

In plain terms, OC[C@H]1O[C@@H](Oc2ccc(O)cc2)[C@H](O)[C@@H](O)[C@@H]1O has a documented IC50 of 1290

In plain terms, O=C(/C=C/c1ccc(O)cc1)OC[C@H]1O[C@@H](Oc2ccc(O)cc2)[C@H](O)[C@@H](O)[C@@H]1O [Compound 8, Robustaside A] has a documented IC50 of 741

In plain terms, COC(=O)/C=C/c1ccc(O)c(O)c1 has a documented IC50 of 1380

In plain terms, CCOC(=O)/C=C/c1ccc(O)c(O)c1 has a documented IC50 of 1240

In plain terms, O=C(/C=C/c1ccc(O)c(O)c1)OC[C@H]1O[C@@H](O)[C@H](O)[C@@H](O)[C@@H]1O has a documented IC50 of 303

In plain terms, O=c1c(O[C@@H]2O[C@H](CO)[C@@H](O)[C@H](O)[C@H]2O)c(-c2ccc(O)cc2)oc2cc(O)cc(O)c12 [Compound 9, Kaempferol-3-O-β-D-glucopyranoside] has a documented IC50 of 778
